Target system: cloned human M4 receptor (Homo sapiens)
Sequence (P08173 1-479): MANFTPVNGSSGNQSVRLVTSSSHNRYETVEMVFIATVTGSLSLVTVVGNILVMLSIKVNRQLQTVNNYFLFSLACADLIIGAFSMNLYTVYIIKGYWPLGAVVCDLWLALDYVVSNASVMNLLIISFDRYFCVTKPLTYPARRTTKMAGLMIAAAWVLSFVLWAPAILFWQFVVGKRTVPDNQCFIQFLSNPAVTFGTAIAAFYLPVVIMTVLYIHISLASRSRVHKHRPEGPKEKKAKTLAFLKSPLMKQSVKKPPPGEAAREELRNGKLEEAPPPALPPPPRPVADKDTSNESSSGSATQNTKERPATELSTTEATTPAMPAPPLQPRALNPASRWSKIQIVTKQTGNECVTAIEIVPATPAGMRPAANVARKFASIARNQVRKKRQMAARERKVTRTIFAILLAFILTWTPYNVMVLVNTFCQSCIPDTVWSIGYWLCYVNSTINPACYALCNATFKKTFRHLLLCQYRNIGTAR
Method notes: hM4 receptor GTPγS binding
Condition label: CHO membranes, [35S]GTPγS binding
Reported property: EC50 (µM)

A selection of reference data follows.
O=C1CCCN1CCC(=O)N1CCC(N2CCC(N3C(=O)N[C@H]4CCCC[C@@H]43)CC2)CC1    5.1
CCOC(=O)N1CCC(N2CCC(N3C(=O)N[C@H]4CCCC[C@@H]43)CC2)CC1    0.33
CC(C)OC(=O)N1CCC(N2CCC(N3C(=O)N[C@H]4CCCC[C@@H]43)CC2)CC1    1.3
CCOC(=O)N1CC[C@H](N2CCC(N3C(=O)N[C@H]4CCCC[C@@H]43)CC2)C1    9.4
CC(C)OC(=O)N1CCC(N2CCC(N3C(=O)N[C@@H]4CCCC[C@@H]43)CC2)CC1    4.5

[A] O=C(OCCF)N1CCC(N2CCC(N3C(=O)N[C@H]4CCCC[C@@H]43)CC2)CC1
[B] CC(C)OC(=O)N1CCC(N2CCC(N3C(=O)C[C@H]4CCCC[C@@H]43)CC2)CC1
Between A and B , which one shows the larger EC50 value? Use the label to indicate which entry you chose. B

---

Target system: UniProtKB P08172
Sequence (P08172 whole entry): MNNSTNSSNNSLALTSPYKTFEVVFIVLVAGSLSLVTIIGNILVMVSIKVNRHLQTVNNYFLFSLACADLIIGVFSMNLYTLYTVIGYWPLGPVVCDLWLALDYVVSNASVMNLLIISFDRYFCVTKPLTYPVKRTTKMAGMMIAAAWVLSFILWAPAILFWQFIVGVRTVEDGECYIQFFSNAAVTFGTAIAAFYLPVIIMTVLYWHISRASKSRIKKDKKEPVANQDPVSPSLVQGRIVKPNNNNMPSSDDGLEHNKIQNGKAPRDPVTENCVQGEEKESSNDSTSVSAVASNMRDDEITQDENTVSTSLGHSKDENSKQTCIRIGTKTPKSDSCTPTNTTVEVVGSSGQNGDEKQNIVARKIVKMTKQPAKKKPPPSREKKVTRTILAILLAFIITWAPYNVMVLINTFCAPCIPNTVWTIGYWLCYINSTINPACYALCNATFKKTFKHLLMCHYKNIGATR
Method notes: hM2 receptor GTPγS binding
Condition label: CHO membranes, [35S]GTPγS binding
pEC50: −log10 of the molar value.
Reported property: pEC50

A selection of reference data follows.
O=C(OCCF)N1CCC(N2CCC(N3C(=O)N[C@H]4CCCC[C@@H]43)CC2)CC1    6.42
O=C1CCCN1CCC(=O)N1CCC(N2CCC(N3C(=O)N[C@@H]4CCCC[C@H]43)CC2)CC1    6.00
CC(C)OC(=O)N1CCC(N2CCC(N3C(=O)N[C@@H]4CCCC[C@@H]43)CC2)CC1    5.60
CC(C)OC(=O)N1CCC(N2CCC(N3C(=O)C[C@H]4CCCC[C@@H]43)CC2)CC1    5.92
CC(C)OC(=O)N1CCC(N2CCC(N3C(=O)N[C@H]4CCCC[C@@H]43)CC2)CC1    6.12

[1] O=C(C1CCCC1)N1CCC(N2CCC(N3C(=O)N[C@H]4CCCC[C@@H]43)CC2)CC1
[2] CCOC(=O)N1CC[C@H](N2CCC(N3C(=O)N[C@H]4CCCC[C@@H]43)CC2)C1
Hello, I am sorting some records. Could you say if 1 or 2 has the smaller pEC50 value? Use the label to indicate which entry you chose. 2
(2: 5.14, 1: 5.59)

[I] O=C1CCCN1CCC(=O)N1CCC(N2CCC(N3C(=O)N[C@H]4CCCC[C@@H]43)CC2)CC1
[II] CCOC(=O)N1CCC(N2CCC(N3C(=O)N[C@H]4CCCC[C@@H]43)CC2)CC1
Hello, I am sorting some records. Could you say if I or II has the smaller pEC50 value? Use the label to indicate which entry you chose. I

Origin of the recorded values: patent US7956069B2
